Assay text: Solubility of compound in water
Type: physicochemical
Decide by solubility: equal to or exceeding 0.9 µg/mL means True, less means False.

>  <Molecule>
COC(=O)C1CCCN(Cc2ccc3nc4n(c(=O)c3c2)-c2ccc(F)cc2C4=O)C1 (stereo not drawn)

>  <Answer label>
True

$$$$
>  <Molecule>
CC1(C)OB(c2ccc3nc4n(c(=O)c3c2)-c2ccc(F)cc2C4=O)OC1(C)C

>  <Answer label>
False

$$$$
>  <Molecule>
O=C1c2cc(F)ccc2-n2c1nc1ccc(Cn3ccnn3)cc1c2=O

>  <Answer label>
True

$$$$
>  <Molecule>
O=C1c2cc(F)ccc2-n2c1nc1ccc(CN3CCCC(C(=O)O)C3)cc1c2=O (stereo not drawn)

>  <Answer label>
True

$$$$
>  <Molecule>
O=Cc1ccc2nc3n(c(=O)c2c1)-c1ccc(F)cc1C3=O

>  <Answer label>
False

$$$$
>  <Molecule>
O=C1c2cc(F)ccc2-n2c1nc1ccccc1c2=O

>  <Answer label>
False

$$$$
>  <Molecule>
COC(=O)C1CCN(Cc2ccc3nc4n(c(=O)c3c2)-c2ccc(F)cc2C4=O)CC1

>  <Answer label>
True

$$$$
>  <Molecule>
O=C1c2cc(F)ccc2-n2c1nc1ccc(B(O)O)cc1c2=O

>  <Answer label>
False

$$$$
>  <Molecule>
O=C1c2cc(F)ccc2-n2c1nc1ccc(CN3CCC(C(=O)O)CC3)cc1c2=O

>  <Answer label>
True

$$$$
>  <Molecule>
O=C(O)/C=C/c1ccc2nc3n(c(=O)c2c1)-c1ccc(F)cc1C3=O

>  <Answer label>
True

$$$$
>  <Molecule>
O=C1c2cc(F)ccc2-n2c1nc1ccc(CN3CCCC3C(=O)O)cc1c2=O (stereo not drawn)

>  <Answer label>
True

$$$$
>  <Molecule>
CCOC(=O)/C=C/c1ccc2nc3n(c(=O)c2c1)-c1ccc(F)cc1C3=O

>  <Answer label>
False

$$$$

* * *

Assayed target: Tryptophan 2,3-dioxygenase (Homo sapiens, UniProt P48775)
Sequence (P48775 whole entry): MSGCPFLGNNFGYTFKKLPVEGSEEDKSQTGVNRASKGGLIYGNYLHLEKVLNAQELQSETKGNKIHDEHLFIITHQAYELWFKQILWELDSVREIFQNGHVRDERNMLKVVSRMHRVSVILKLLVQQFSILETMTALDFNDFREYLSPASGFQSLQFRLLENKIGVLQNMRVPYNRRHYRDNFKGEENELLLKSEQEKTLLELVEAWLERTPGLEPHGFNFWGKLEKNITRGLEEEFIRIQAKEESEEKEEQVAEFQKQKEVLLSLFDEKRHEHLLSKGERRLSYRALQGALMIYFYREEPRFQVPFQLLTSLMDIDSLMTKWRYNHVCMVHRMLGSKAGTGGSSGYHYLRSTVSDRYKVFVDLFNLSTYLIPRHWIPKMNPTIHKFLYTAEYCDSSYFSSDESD
Assay text: Inhibition of recombinant human TDO expressed in Escherichia coli BL21 using L-Trp as substrate incubated for 30 mins by enzymatic assay
# note: boundary value 1000 nM maps to criterion not met; IC50 below it maps to criterion met

>  <Compound>
O=C1c2cc(F)ccc2-n2c1nc1ccc(CN3CCCC(C(=O)O)C3)cc1c2=O (stereo not given)

>  <Answer label>
criterion met

$$$$
>  <Compound>
O=C1c2cc(F)ccc2-n2c1nc1ccc(CN3CCCC3C(=O)O)cc1c2=O (stereo not given)

>  <Answer label>
criterion met

$$$$
>  <Compound>
O=C(O)/C=C/c1ccc2nc3n(c(=O)c2c1)-c1ccc(F)cc1C3=O

>  <Answer label>
criterion met

$$$$
>  <Compound>
COC(=O)C1CCCN(Cc2ccc3nc4n(c(=O)c3c2)-c2ccc(F)cc2C4=O)C1 (stereo not given)

>  <Answer label>
criterion not met

$$$$

* * *

Assayed target: Indoleamine 2,3-dioxygenase 1 (Homo sapiens, UniProt P14902)
Sequence (P14902 whole entry): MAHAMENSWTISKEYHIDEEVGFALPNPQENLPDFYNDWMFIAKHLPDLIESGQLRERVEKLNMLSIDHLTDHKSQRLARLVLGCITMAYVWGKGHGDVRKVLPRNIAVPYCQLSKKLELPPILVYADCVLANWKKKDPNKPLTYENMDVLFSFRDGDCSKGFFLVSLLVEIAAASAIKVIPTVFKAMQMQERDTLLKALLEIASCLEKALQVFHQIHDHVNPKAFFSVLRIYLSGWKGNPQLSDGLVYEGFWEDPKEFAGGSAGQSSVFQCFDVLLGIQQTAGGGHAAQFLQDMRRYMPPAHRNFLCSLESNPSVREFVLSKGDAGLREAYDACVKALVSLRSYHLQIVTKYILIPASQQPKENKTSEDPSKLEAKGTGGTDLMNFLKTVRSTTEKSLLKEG
Assay text: Inhibition of IDO1 (unknown origin)
Note: every record was labeled by where its IC50 sits among band A (below 500 nM), band B (500 nM to below 1000 nM), band C (1000 nM or more)

>  <Compound>
CCOC(=O)/C=C/c1ccc2nc3n(c(=O)c2c1)-c1ccc(F)cc1C3=O

>  <Answer label>
band A

$$$$
>  <Compound>
O=C1c2cc(F)ccc2-n2c1nc1ccc(Cn3ccnn3)cc1c2=O

>  <Answer label>
band B

$$$$
>  <Compound>
O=Cc1ccc2nc3n(c(=O)c2c1)-c1ccc(F)cc1C3=O

>  <Answer label>
band A

$$$$
>  <Compound>
COC(=O)C1CCCN(Cc2ccc3nc4n(c(=O)c3c2)-c2ccc(F)cc2C4=O)C1 (configuration not stated)

>  <Answer label>
band C

$$$$
>  <Compound>
CC1(C)OB(c2ccc3nc4n(c(=O)c3c2)-c2ccc(F)cc2C4=O)OC1(C)C

>  <Answer label>
band C

$$$$
>  <Compound>
O=C1c2cc(F)ccc2-n2c1nc1ccc(CN3CCCC(C(=O)O)C3)cc1c2=O (configuration not stated)

>  <Answer label>
band B

$$$$
>  <Compound>
O=C1c2cc(F)ccc2-n2c1nc1ccc(B(O)O)cc1c2=O

>  <Answer label>
band C

$$$$
>  <Compound>
COC(=O)C1CCCN1Cc1ccc2nc3n(c(=O)c2c1)-c1ccc(F)cc1C3=O (configuration not stated)

>  <Answer label>
band A

$$$$
>  <Compound>
O=C(O)/C=C/c1ccc2nc3n(c(=O)c2c1)-c1ccc(F)cc1C3=O

>  <Answer label>
band A

$$$$
>  <Compound>
O=C1c2cc(F)ccc2-n2c1nc1ccc(CN3CCCC3C(=O)O)cc1c2=O (configuration not stated)

>  <Answer label>
band B

$$$$
>  <Compound>
O=C1c2cc(F)ccc2-n2c1nc1ccc(CN3CCC(C(=O)O)CC3)cc1c2=O

>  <Answer label>
band A

$$$$
>  <Compound>
COC(=O)C1CCN(Cc2ccc3nc4n(c(=O)c3c2)-c2ccc(F)cc2C4=O)CC1

>  <Answer label>
band C

$$$$

* * *

Property: pIC50; scope: individual compounds
Assayed target: Indoleamine 2,3-dioxygenase 1 (Homo sapiens, UniProt P14902)
Assay text: Inhibition of IDO1 in human HeLa cells
Format: cell-based
pIC50: −log10 of the molar value.

>  <Compound>
O=C(O)/C=C/c1ccc2nc3n(c(=O)c2c1)-c1ccc(F)cc1C3=O

>  <Assayed target>
Indoleamine 2,3-dioxygenase 1 (Homo sapiens, UniProt P14902)

>  <pIC50>
7.22

$$$$
>  <Compound>
CC1(C)OB(c2ccc3nc4n(c(=O)c3c2)-c2ccc(F)cc2C4=O)OC1(C)C

>  <Assayed target>
Indoleamine 2,3-dioxygenase 1 (Homo sapiens, UniProt P14902)

>  <pIC50>
6.12

$$$$
>  <Compound>
O=C1c2cc(F)ccc2-n2c1nc1ccc(B(O)O)cc1c2=O

>  <Assayed target>
Indoleamine 2,3-dioxygenase 1 (Homo sapiens, UniProt P14902)

>  <pIC50>
6.64

$$$$
>  <Compound>
O=C1c2cc(F)ccc2-n2c1nc1ccc(Cn3ccnn3)cc1c2=O

>  <Assayed target>
Indoleamine 2,3-dioxygenase 1 (Homo sapiens, UniProt P14902)

>  <pIC50>
7.10

$$$$
>  <Compound>
O=Cc1ccc2nc3n(c(=O)c2c1)-c1ccc(F)cc1C3=O

>  <Assayed target>
Indoleamine 2,3-dioxygenase 1 (Homo sapiens, UniProt P14902)

>  <pIC50>
6.80

$$$$
>  <Compound>
COC(=O)C1CCCN1Cc1ccc2nc3n(c(=O)c2c1)-c1ccc(F)cc1C3=O (configuration not stated)

>  <Assayed target>
Indoleamine 2,3-dioxygenase 1 (Homo sapiens, UniProt P14902)

>  <pIC50>
6.15

$$$$
>  <Compound>
O=C1c2cc(F)ccc2-n2c1nc1ccc(CN3CCC(C(=O)O)CC3)cc1c2=O

>  <Assayed target>
Indoleamine 2,3-dioxygenase 1 (Homo sapiens, UniProt P14902)

>  <pIC50>
5.51

$$$$
>  <Compound>
O=C1c2cc(F)ccc2-n2c1nc1ccc(CN3CCCC3C(=O)O)cc1c2=O (configuration not stated)

>  <Assayed target>
Indoleamine 2,3-dioxygenase 1 (Homo sapiens, UniProt P14902)

>  <pIC50>
5.42

$$$$
>  <Compound>
COC(=O)C1CCCN(Cc2ccc3nc4n(c(=O)c3c2)-c2ccc(F)cc2C4=O)C1 (configuration not stated)

>  <Assayed target>
Indoleamine 2,3-dioxygenase 1 (Homo sapiens, UniProt P14902)

>  <pIC50>
6.43

$$$$
>  <Compound>
O=C1c2cc(F)ccc2-n2c1nc1ccc(CN3CCCC(C(=O)O)C3)cc1c2=O (configuration not stated)

>  <Assayed target>
Indoleamine 2,3-dioxygenase 1 (Homo sapiens, UniProt P14902)

>  <pIC50>
5.74

$$$$
>  <Compound>
COC(=O)C1CCN(Cc2ccc3nc4n(c(=O)c3c2)-c2ccc(F)cc2C4=O)CC1

>  <Assayed target>
Indoleamine 2,3-dioxygenase 1 (Homo sapiens, UniProt P14902)

>  <pIC50>
6.82

$$$$
>  <Compound>
CCOC(=O)/C=C/c1ccc2nc3n(c(=O)c2c1)-c1ccc(F)cc1C3=O

>  <Assayed target>
Indoleamine 2,3-dioxygenase 1 (Homo sapiens, UniProt P14902)

>  <pIC50>
7.70

$$$$

* * *

Measured pIC50 accompanies every entry in the list below.
Assayed target: Tryptophan 2,3-dioxygenase (Homo sapiens)
Assay text: Inhibition of recombinant human TDO expressed in Escherichia coli BL21 using L-Trp as substrate incubated for 30 mins by enzymatic assay
pIC50: −log10 of the molar value.

>  <Molecule>
O=C1c2cc(F)ccc2-n2c1nc1ccc(CN3CCC(C(=O)O)CC3)cc1c2=O

>  <pIC50>
6.35

$$$$
>  <Molecule>
CC1(C)OB(c2ccc3nc4n(c(=O)c3c2)-c2ccc(F)cc2C4=O)OC1(C)C

>  <pIC50>
5.22

$$$$
>  <Molecule>
O=Cc1ccc2nc3n(c(=O)c2c1)-c1ccc(F)cc1C3=O

>  <pIC50>
7.22

$$$$
>  <Molecule>
O=C1c2cc(F)ccc2-n2c1nc1ccc(B(O)O)cc1c2=O

>  <pIC50>
5.92

$$$$
>  <Molecule>
O=C1c2cc(F)ccc2-n2c1nc1ccc(Cn3ccnn3)cc1c2=O

>  <pIC50>
5.95

$$$$
>  <Molecule>
CCOC(=O)/C=C/c1ccc2nc3n(c(=O)c2c1)-c1ccc(F)cc1C3=O

>  <pIC50>
6.43

$$$$
>  <Molecule>
COC(=O)C1CCCN1Cc1ccc2nc3n(c(=O)c2c1)-c1ccc(F)cc1C3=O (configuration not stated)

>  <pIC50>
6.52

$$$$
